src = patent US20190324022

Biological target: TNF-alpha (Homo sapiens, UniProt P01375 P01375:77-233)
Sequence (P01375 77-233, one chain of several): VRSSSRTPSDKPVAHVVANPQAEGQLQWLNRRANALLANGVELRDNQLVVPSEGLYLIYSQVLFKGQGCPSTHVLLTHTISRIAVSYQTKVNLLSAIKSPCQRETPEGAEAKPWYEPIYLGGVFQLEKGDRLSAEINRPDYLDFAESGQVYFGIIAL
Assay: flow; PBSMCT buffer (2.5 mM MgCl2, 1 mM CaCl2), room temperature, 3 h; 0.27 nM in serum
Conditions: tags: biotinylated; R&D Systems; chain copies: 3 (inferred)
From the text: MyOne carboxylic acid magnetic particles were coated with amino-modified candidate nucleic acid agents S01, B01, or VR11 (a previously published TNF-α candidate nucleic acid agent), or with mAb11 antibody (a commercial TNF-α antibody). […] The particles were washed with PBSMCT and median fluorescence intensities were quantified via FACS. […]
Measure name: Kd (nM)
Unit nM implied. Number only.

Give the measured Kd of S01 (ssDNA, 5'-amino, coupled to magnetic particles) DNA: ATCCAGAGTGACGCAGCATGCTTAAGGGGGGGGCGGGTTAAGGGAGTGGGGAGGGAGCTGGTGTGGACACGGTGGCTTAGT . 0.19
